Test system: F21T-Na+ (human telomeric G-quadruplex, antiparallel)
Assay: FRET melting assay, human telomeric G4 in sodium buffer
Assay type: binding
Settings: 1 µM ligand, 200 nM DNA; PIPER and 3 not reliable (spectral overlap)
So I've got a bunch of molecules here, and I need their ΔTm F21T-Na+ values.
One number for each entry, in °C.

These recorded examples may help you get a feel for the data.
molecule="NCCOc1cc(C(=O)Nc2cc(OCCN)c3ccccc3n2)nc(C(=O)Nc2cc(OCCN)c3ccccc3n2)c1 [Pyridostatin, reference compound]" target="F21T-Na+ (human telomeric G-quadruplex, antiparallel)" measurement_type="ΔTm F21T-Na+" units_label=°C reported_result=36
molecule="COc1cccc2c1C(=O)c1c(O)c3c(c(O)c1C2=O)C[C@@](O)(C(=O)CO)C[C@@H]3O[C@H]1C[C@H](N)[C@H](O)[C@H](C)O1 [Doxorubicin, reference compound]" target="F21T-Na+ (human telomeric G-quadruplex, antiparallel)" measurement_type="ΔTm F21T-Na+" units_label=°C reported_result=0
molecule=CN1CCN(CCCNC(=O)c2ccc(Oc3ccc(C(C)(C)c4ccc(Oc5ccc(C(=O)NCCCN6CCN(C)CC6)c(C(=O)NCCCN6CCN(C)CC6)c5)cc4)cc3)cc2C(=O)NCCCN2CCN(C)CC2)CC1 target="F21T-Na+ (human telomeric G-quadruplex, antiparallel)" measurement_type="ΔTm F21T-Na+" units_label=°C reported_result=-4
molecule=CN1CCN(CCCN2C(=O)c3ccc4c5ccc6c7c(ccc(c8ccc(c3c48)C2=O)c75)C(=O)N(CCCN2CCN(C)CC2)C6=O)CC1 target="F21T-Na+ (human telomeric G-quadruplex, antiparallel)" measurement_type="ΔTm F21T-Na+" units_label=°C reported_result=18

Turning now to a further record.
Result for C[n+]1ccc(-c2c3nc(c(-c4cc[n+](C)cc4)c4ccc([nH]4)c(-c4cc[n+](C)cc4)c4ccc([nH]4)c(-c4cc[n+](C)cc4)c4nc2C=C4)C=C3)cc1 [TMPyP4, reference compound] , tested on F21T-Na+ (human telomeric G-quadruplex, antiparallel), ΔTm F21T-Na+: 31

====

System: F21T-K+ (human telomeric G-quadruplex, mixed parallel/hybrid)
Assay: FRET melting assay, human telomeric G4 in potassium buffer
Assay type: binding
Conditions: 1 µM ligand, 200 nM DNA; PIPER and 3 not reliable (spectral overlap)
Give ΔTm F21T-K+ for every item shown.
One number for each entry, in °C.

compound="COc1cccc2c1C(=O)c1c(O)c3c(c(O)c1C2=O)C[C@@](O)(C(=O)CO)C[C@@H]3O[C@H]1C[C@H](N)[C@H](O)[C@H](C)O1 [Doxorubicin, reference compound]" measurement_type="ΔTm F21T-K+" units_label=°C reported_result=10

Hello, I would appreciate it if you could give ΔTm F21T-K+ for each entry below.
1. CN1CCN(CCCNC(=O)c2ccc(Oc3ccc(C(C)(C)c4ccc(Oc5ccc(C(=O)NCCCN6CCN(C)CC6)c(C(=O)NCCCN6CCN(C)CC6)c5)cc4)cc3)cc2C(=O)NCCCN2CCN(C)CC2)CC1
2. C[n+]1ccc(-c2c3nc(c(-c4cc[n+](C)cc4)c4ccc([nH]4)c(-c4cc[n+](C)cc4)c4ccc([nH]4)c(-c4cc[n+](C)cc4)c4nc2C=C4)C=C3)cc1 [TMPyP4, reference compound]

1. -2
2. 33
